test_system: human CXCR2 receptor (Homo sapiens, UniProt P25025)
Sequence (P25025 whole entry): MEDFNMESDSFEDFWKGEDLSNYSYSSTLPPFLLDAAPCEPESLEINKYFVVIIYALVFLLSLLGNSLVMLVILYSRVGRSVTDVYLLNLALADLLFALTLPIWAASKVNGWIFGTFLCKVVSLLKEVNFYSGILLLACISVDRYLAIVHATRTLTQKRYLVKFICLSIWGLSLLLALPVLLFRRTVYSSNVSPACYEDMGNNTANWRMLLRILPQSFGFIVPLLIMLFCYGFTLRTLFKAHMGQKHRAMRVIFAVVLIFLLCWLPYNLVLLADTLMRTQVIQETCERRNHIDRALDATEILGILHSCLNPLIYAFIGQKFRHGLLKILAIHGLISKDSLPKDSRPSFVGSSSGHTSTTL
pIC50: −log10 of the molar value.
property_name: pIC50

compound	pIC50
CC[C@@H](Nc1c(Nc2ccc(Cl)c(S(=O)(=O)N(C)OC)c2O)c(=O)c1=O)[C@H]1CC[C@@H](C)O1	7.55

A: CCC(Nc1c(Nc2ccc(Cl)c(S(=O)(=O)N(C)OC)c2O)c(=O)c1=O)c1cccnc1 (stereo not shown)
B: CC[C@@H](Nc1c(Nc2ccc(Cl)c(S(=O)(=O)N3C[C@H](O)CO3)c2O)c(=O)c1=O)[C@H]1CC[C@@H](C)O1
C: CON(C)S(=O)(=O)c1c(Cl)ccc(Nc2c(N[C@H](C)c3ccccc3)c(=O)c2=O)c1O
Query :: Order field: pIC50 | Direction: descending (largest first) A ranking is expressed here by listing the labels in the requested order.
Result :: B, C, A
(B: 7.96, C: 7.48, A: 7.03)
